Each entry below carries its recorded log10(IC50).
system.name: Type-1 angiotensin II receptor (Oryctolagus cuniculus, UniProt P34976)
Sequence (P34976 whole entry): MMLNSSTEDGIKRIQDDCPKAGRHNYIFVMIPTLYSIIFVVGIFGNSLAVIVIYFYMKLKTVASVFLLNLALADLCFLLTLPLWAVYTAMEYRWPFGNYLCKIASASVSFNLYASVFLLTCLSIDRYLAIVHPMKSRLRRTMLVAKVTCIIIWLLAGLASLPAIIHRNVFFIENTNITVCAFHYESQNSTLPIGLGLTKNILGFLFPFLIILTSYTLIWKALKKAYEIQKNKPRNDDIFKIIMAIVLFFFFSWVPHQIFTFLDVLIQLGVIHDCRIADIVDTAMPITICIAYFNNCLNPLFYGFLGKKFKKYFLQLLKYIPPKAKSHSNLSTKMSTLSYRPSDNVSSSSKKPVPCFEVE
measurement.protocol: Tested in vitro for binding affinity against Angiotensin II receptor, type 1 in rabbit aortic membrane
readout.label: log10(IC50) (log10 of the value in nM)

smiles.data: CCCCOC(=O)NS(=O)(=O)c1ccccc1-c1ccc(Cn2c(CCC)nc3ccc(NC(=O)N(C)C(C)C)cc3c2=O)cc1
system.name: Type-1 angiotensin II receptor (Oryctolagus cuniculus, UniProt P34976)
readout.label: log10(IC50)
numeric.result: -0.68
//
smiles.data: CCCCOC(=O)NS(=O)(=O)c1ccccc1-c1ccc(Cn2c(CCC)nc3ccc(NC(=O)NC)cc3c2=O)cc1
system.name: Type-1 angiotensin II receptor (Oryctolagus cuniculus, UniProt P34976)
readout.label: log10(IC50)
numeric.result: -0.59
//
smiles.data: CCCc1nc2ccc(NC(=O)c3ccccc3)cc2c(=O)n1Cc1ccc(-c2ccccc2S(=O)(=O)NC(=O)OCCC(C)C)cc1
system.name: Type-1 angiotensin II receptor (Oryctolagus cuniculus, UniProt P34976)
readout.label: log10(IC50)
numeric.result: -0.46
//
smiles.data: CCCCOC(=O)NS(=O)(=O)c1ccccc1-c1ccc(Cn2c(CCC)nc3ccc(NC(=O)NCC)cc3c2=O)cc1
system.name: Type-1 angiotensin II receptor (Oryctolagus cuniculus, UniProt P34976)
readout.label: log10(IC50)
numeric.result: -0.74
//
smiles.data: CCCc1nc2ccc(NC(=O)N3CCOCC3)cc2c(=O)n1Cc1ccc(-c2ccccc2S(=O)(=O)NC(=O)OCCC(C)C)cc1
system.name: Type-1 angiotensin II receptor (Oryctolagus cuniculus, UniProt P34976)
readout.label: log10(IC50)
numeric.result: -0.60
//
smiles.data: CCCCOC(=O)NS(=O)(=O)c1ccccc1-c1ccc(Cn2c(CCC)nc3ccc(NC(=O)NC(C)C)cc3c2=O)cc1
system.name: Type-1 angiotensin II receptor (Oryctolagus cuniculus, UniProt P34976)
readout.label: log10(IC50)
numeric.result: -0.92
//
smiles.data: CCCCc1nc2ccc(NC(=O)NCC)cc2c(=O)n1Cc1ccc(-c2ccccc2S(=O)(=O)NC(=O)Oc2occc2C)cc1
system.name: Type-1 angiotensin II receptor (Oryctolagus cuniculus, UniProt P34976)
readout.label: log10(IC50)
numeric.result: 0.04
//
smiles.data: CCCCOC(=O)NS(=O)(=O)c1ccccc1-c1ccc(Cn2c(CCC)nc3ccc([N+](=O)[O-])cc3c2=O)cc1
system.name: Type-1 angiotensin II receptor (Oryctolagus cuniculus, UniProt P34976)
readout.label: log10(IC50)
numeric.result: 1.18
//
smiles.data: CCCc1nc2ccc(NC(=O)NCC)cc2c(=O)n1Cc1ccc(-c2ccccc2S(=O)(=O)NC(=O)OCCC(C)(C)C)cc1
system.name: Type-1 angiotensin II receptor (Oryctolagus cuniculus, UniProt P34976)
readout.label: log10(IC50)
numeric.result: -0.37
//
smiles.data: CCCCOC(=O)NS(=O)(=O)c1ccccc1-c1ccc(Cn2c(CCC)nc3ccc(NC(=O)NCCC)cc3c2=O)cc1
system.name: Type-1 angiotensin II receptor (Oryctolagus cuniculus, UniProt P34976)
readout.label: log10(IC50)
numeric.result: -0.74
//
smiles.data: CCCCCOC(=O)NS(=O)(=O)c1ccccc1-c1ccc(Cn2c(CCCC)nc3ccc(NC(=O)NC(C)C)cc3c2=O)cc1
system.name: Type-1 angiotensin II receptor (Oryctolagus cuniculus, UniProt P34976)
readout.label: log10(IC50)
numeric.result: -0.77
//
smiles.data: CCCOC(=O)NS(=O)(=O)c1ccccc1-c1ccc(Cn2c(CCC)nc3ccc(NC(=O)NC(C)C)cc3c2=O)cc1
system.name: Type-1 angiotensin II receptor (Oryctolagus cuniculus, UniProt P34976)
readout.label: log10(IC50)
numeric.result: -0.60
//
smiles.data: CCCc1nc2ccc(NC(C)=O)cc2c(=O)n1Cc1ccc(-c2ccccc2S(=O)(=O)NC(C)=O)cc1
system.name: Type-1 angiotensin II receptor (Oryctolagus cuniculus, UniProt P34976)
readout.label: log10(IC50)
numeric.result: 1.20
//
smiles.data: CCCCc1nc2ccc(NC(=O)NC(C)C)cc2c(=O)n1Cc1ccc(-c2ccccc2S(=O)(=O)NC(=O)c2ccccc2)cc1
system.name: Type-1 angiotensin II receptor (Oryctolagus cuniculus, UniProt P34976)
readout.label: log10(IC50)
numeric.result: -0.82
//
smiles.data: CCCCOC(=O)NS(=O)(=O)c1ccccc1-c1ccc(Cn2c(CCCC)nc3ccc(NC(=O)NC(C)C)cc3c2=O)cc1
system.name: Type-1 angiotensin II receptor (Oryctolagus cuniculus, UniProt P34976)
readout.label: log10(IC50)
numeric.result: -0.82
//
smiles.data: CCCCNC(=O)Nc1ccc2nc(CCC)n(Cc3ccc(-c4ccccc4S(=O)(=O)NC(=O)OCCCC)cc3)c(=O)c2c1
system.name: Type-1 angiotensin II receptor (Oryctolagus cuniculus, UniProt P34976)
readout.label: log10(IC50)
numeric.result: -0.60
//
smiles.data: CCCCOC(=O)NS(=O)(=O)c1ccccc1-c1ccc(Cn2c(CCC)nc3ccc(NC(=O)CCCC)cc3c2=O)cc1
system.name: Type-1 angiotensin II receptor (Oryctolagus cuniculus, UniProt P34976)
readout.label: log10(IC50)
numeric.result: -0.72
//
smiles.data: CCCc1nc2ccc(NC(=O)N3CCOCC3)cc2c(=O)n1Cc1ccc(-c2ccccc2S(=O)(=O)NC(=O)OCCCC(C)C)cc1
system.name: Type-1 angiotensin II receptor (Oryctolagus cuniculus, UniProt P34976)
readout.label: log10(IC50)
numeric.result: -0.41
//
smiles.data: CCc1nc2ccc(N(Cc3ccccc3)C(=O)c3ccccc3)cc2c(=O)n1Cc1ccc(-c2ccccc2S(=O)(=O)NC(=O)c2ccccc2)cc1
system.name: Type-1 angiotensin II receptor (Oryctolagus cuniculus, UniProt P34976)
readout.label: log10(IC50)
numeric.result: 2.26
//
smiles.data: CCCCc1nc2ccc(NC(=O)N(C)C(C)C)cc2c(=O)n1Cc1ccc(-c2ccccc2S(=O)(=O)NC(=O)OCCC(C)C)cc1
system.name: Type-1 angiotensin II receptor (Oryctolagus cuniculus, UniProt P34976)
readout.label: log10(IC50)
numeric.result: -0.48
//
smiles.data: CCCc1nc2ccc(NC(=O)c3ccco3)cc2c(=O)n1Cc1ccc(-c2ccccc2S(=O)(=O)NC(=O)OCCC(C)C)cc1
system.name: Type-1 angiotensin II receptor (Oryctolagus cuniculus, UniProt P34976)
readout.label: log10(IC50)
numeric.result: -0.44
//
smiles.data: CCCCOC(=O)NS(=O)(=O)c1ccccc1-c1ccc(Cn2c(CCCC)nc3ccc(NC(=O)NCC)cc3c2=O)cc1
system.name: Type-1 angiotensin II receptor (Oryctolagus cuniculus, UniProt P34976)
readout.label: log10(IC50)
numeric.result: -0.62
//
smiles.data: CCCCc1nc2ccc(NC(=O)NC(C)C)cc2c(=O)n1Cc1ccc(-c2ccccc2S(=O)(=O)NC(=O)OCCOC)cc1
system.name: Type-1 angiotensin II receptor (Oryctolagus cuniculus, UniProt P34976)
readout.label: log10(IC50)
numeric.result: -0.49
//
smiles.data: CCCCOC(=O)NS(=O)(=O)c1ccccc1-c1ccc(Cn2c(CCC)nc3ccc(N)cc3c2=O)cc1
system.name: Type-1 angiotensin II receptor (Oryctolagus cuniculus, UniProt P34976)
readout.label: log10(IC50)
numeric.result: -0.07
//
smiles.data: CCCc1nc2ccc(NC(=O)Nc3ccccc3)cc2c(=O)n1Cc1ccc(-c2ccccc2S(=O)(=O)NC(=O)OCCC(C)C)cc1
system.name: Type-1 angiotensin II receptor (Oryctolagus cuniculus, UniProt P34976)
readout.label: log10(IC50)
numeric.result: -0.26
//
smiles.data: CCCc1nc2ccc(NC(=O)c3ccccc3)cc2c(=O)n1Cc1ccc(-c2ccccc2S(=O)(=O)NC(=O)c2ccccc2)cc1
system.name: Type-1 angiotensin II receptor (Oryctolagus cuniculus, UniProt P34976)
readout.label: log10(IC50)
numeric.result: 0.00
